Cited source for all entries: ChEMBL document CHEMBL1136757

# tgt: Glutathione reductase (Saccharomyces cerevisiae S288c, UniProt P41921)
# Sequence (P41921 whole entry): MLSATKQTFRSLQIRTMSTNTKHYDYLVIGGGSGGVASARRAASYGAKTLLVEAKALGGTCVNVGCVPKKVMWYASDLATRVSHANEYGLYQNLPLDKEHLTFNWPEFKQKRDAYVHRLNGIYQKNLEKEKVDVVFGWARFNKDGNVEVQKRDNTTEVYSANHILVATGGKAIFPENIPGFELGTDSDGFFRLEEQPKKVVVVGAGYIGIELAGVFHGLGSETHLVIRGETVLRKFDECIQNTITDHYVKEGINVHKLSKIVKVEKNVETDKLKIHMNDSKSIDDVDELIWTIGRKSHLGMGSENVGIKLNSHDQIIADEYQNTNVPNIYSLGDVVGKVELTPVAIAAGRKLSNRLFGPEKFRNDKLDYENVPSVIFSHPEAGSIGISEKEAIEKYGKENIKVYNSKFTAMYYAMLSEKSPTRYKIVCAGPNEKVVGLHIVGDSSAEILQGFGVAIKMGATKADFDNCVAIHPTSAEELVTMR
# assay_method_text: In vitro inhibitory activity against glutathione reductase (GR) from bakers yeast; Not active
metric_name: IC50

Some solved cases for reference:
> print(dat)
                                   molecule      result
1  COc1ccc2c(C(=S)N(C)CC(=O)O)cccc2c1C(F)(F)F  Not Active
2  Cc1ccc(CN2C(=O)C(C(C#N)C(=O)O)c3ccccc32)cc1 (stereo unspecified)  Not Active
3  N#CC(C(=O)O)C1C(=O)N(Cc2ccc(F)cc2)c2ccc(F)cc21 (stereo unspecified)  Not Active
4       O=C1NC(=O)[C@@]2(CCOc3ccc(F)cc32)N1  Not Active
5  N#CC(C(=O)O)C1C(=O)Nc2ccc(F)cc21 (stereo unspecified)  Not Active

Please examine the following record next.
Short answer for Cc1ccc(CN2C(=O)C(C(C#N)C(=O)O)c3cc(F)ccc32)cc1 (stereo unspecified) : IC50 was Not Active
